molecular target: EGFR (Human), P00533 [T790M/L858R]
Sequence (P00533 whole entry T790M/L858R, looked up): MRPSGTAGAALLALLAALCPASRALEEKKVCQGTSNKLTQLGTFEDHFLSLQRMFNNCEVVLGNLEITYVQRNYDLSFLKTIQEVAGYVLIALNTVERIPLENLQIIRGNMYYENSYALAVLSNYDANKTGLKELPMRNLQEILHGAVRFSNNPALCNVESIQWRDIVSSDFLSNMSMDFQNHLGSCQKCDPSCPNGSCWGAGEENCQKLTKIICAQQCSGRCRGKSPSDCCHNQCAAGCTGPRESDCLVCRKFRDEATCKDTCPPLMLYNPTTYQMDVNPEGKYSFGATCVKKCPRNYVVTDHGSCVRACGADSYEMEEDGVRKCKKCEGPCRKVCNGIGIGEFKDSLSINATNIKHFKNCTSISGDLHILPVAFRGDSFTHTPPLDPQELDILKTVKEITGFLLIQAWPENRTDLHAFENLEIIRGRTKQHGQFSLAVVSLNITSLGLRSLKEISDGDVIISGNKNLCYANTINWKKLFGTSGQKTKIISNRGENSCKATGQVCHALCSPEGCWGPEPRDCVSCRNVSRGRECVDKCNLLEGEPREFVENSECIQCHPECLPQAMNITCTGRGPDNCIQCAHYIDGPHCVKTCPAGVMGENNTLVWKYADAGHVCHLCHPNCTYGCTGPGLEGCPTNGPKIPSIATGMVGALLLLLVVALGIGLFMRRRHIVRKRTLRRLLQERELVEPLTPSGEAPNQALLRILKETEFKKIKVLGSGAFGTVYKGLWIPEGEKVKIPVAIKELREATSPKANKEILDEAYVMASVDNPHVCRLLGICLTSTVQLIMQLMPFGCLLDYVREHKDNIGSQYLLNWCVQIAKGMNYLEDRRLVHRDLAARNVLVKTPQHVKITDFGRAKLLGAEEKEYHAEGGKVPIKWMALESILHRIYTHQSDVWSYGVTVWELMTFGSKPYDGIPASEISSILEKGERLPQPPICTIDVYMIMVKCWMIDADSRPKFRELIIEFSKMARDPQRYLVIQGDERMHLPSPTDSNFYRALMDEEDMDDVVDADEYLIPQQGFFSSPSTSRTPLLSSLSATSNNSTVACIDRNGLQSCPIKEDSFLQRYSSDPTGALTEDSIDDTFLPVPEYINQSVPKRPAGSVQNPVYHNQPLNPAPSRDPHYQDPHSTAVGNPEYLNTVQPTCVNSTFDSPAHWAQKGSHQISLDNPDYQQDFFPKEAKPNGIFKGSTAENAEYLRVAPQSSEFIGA
Reported IC50 values follow for various compounds

Compound	Experimental System	IC50
COc1cc(C)c(NC(=O)CCl)cc1Nc1ncc(Cl)c(Nc2ccccc2P(C)(C)=O)n1	EGFR (Human), P00533 [T790M/L858R]	< 50 nM
C=CC(=O)Nc1cc(Nc2ncc(Cl)c(Nc3ccccc3P(C)(C)=O)n2)c(OC)cc1C(=O)N1CCN(C)CC1	EGFR (Human), P00533 [T790M/L858R]	< 50 nM
C=CC(=O)Nc1cc(Nc2ncc(Cl)c(Nc3ccccc3P(C)(C)=O)n2)c(C)cc1OC(COC)CN(C)C (configuration not stated)	EGFR (Human), P00533 [T790M/L858R]	< 50 nM
COc1cc(C)c(NC(=O)CCl)cc1Nc1ncc(C)c(Nc2ccccc2P(C)(C)=O)n1	EGFR (Human), P00533 [T790M/L858R]	< 50 nM
C=CC(=O)Nc1ccc(OC)c(Nc2ncc(Cl)c(Nc3ccc(OCCN4CCCCC4)cc3P(C)(C)=O)n2)c1	EGFR (Human), P00533 [T790M/L858R]	< 50 nM
COc1ccc(NC(=O)CF)cc1Nc1ncc(Cl)c(Nc2ccccc2P(C)(C)=O)n1	EGFR (Human), P00533 [T790M/L858R]	101 to 250 nM
C=CC(=O)Nc1cc(Nc2ncc(Cl)c(Nc3ccccc3P(C)(C)=O)n2)c(OC)cc1C#CCN1CCCCCC1	EGFR (Human), P00533 [T790M/L858R]	< 50 nM
COc1cc(N2CCOCC2)c(NC(=O)C#CCCN2CCCCC2)cc1Nc1ncc(Cl)c(Nc2ccccc2P(C)(C)=O)n1	EGFR (Human), P00533 [T790M/L858R]	< 50 nM
C=CC(=O)Nc1cc(Nc2ncc(Cl)c(Nc3ccccc3P(C)(C)=O)n2)c(OC)cc1C#CCN(C(C)C)C(C)C	EGFR (Human), P00533 [T790M/L858R]	< 50 nM
C=CC(=O)Nc1cc(Nc2ncc(Cl)c(Nc3ccccc3P(C)(C)=O)n2)c(OC)cc1C#CC(C)(C)N(C)C	EGFR (Human), P00533 [T790M/L858R]	< 50 nM
CC#CC(=O)Nc1cc(Nc2ncc(Cl)c(Nc3ccccc3P(C)(C)=O)n2)c(OC)cc1OC1COC1	EGFR (Human), P00533 [T790M/L858R]	50 to 100 nM
COc1ccc(NC(=O)/C=C\C(=O)NCCN(C)C)cc1Nc1ncc(Cl)c(Nc2ccccc2P(C)(C)=O)n1	EGFR (Human), P00533 [T790M/L858R]	< 50 nM
C=CC(=O)Nc1ccc(OC)c(Nc2ncc(Cl)c(Nc3ccc(OCC4CCOCC4)cc3P(C)(C)=O)n2)c1	EGFR (Human), P00533 [T790M/L858R]	< 50 nM
C=CC(=O)Nc1cc(Nc2ncc(Cl)c(Nc3ccccc3P(C)(C)=O)n2)c(OC)cc1N1CCC(N2CCC2)C1 (configuration not stated)	EGFR (Human), P00533 [T790M/L858R]	< 50 nM
C=C(CN1CCCC1)C(=O)Nc1ccc(OC)c(Nc2ncc(Cl)c(Nc3ccccc3P(C)(C)=O)n2)c1	EGFR (Human), P00533 [T790M/L858R]	< 50 nM
C=CC(=O)Nc1cc(Nc2ncc(Cl)c(Nc3ccccc3P(C)(C)=O)n2)c(OC)cc1O[C@@H]1CCCN(C)C1	EGFR (Human), P00533 [T790M/L858R]	< 50 nM
C=C(F)C(=O)Nc1ccc(OC)c(Nc2ncc(Cl)c(Nc3ccccc3P(C)(C)=O)n2)c1	EGFR (Human), P00533 [T790M/L858R]	50 to 100 nM

###

biological target: EGFR (Human), P00533 [T790M/L858R]; conditions: baf3

Input Smiles	IC50
C=C(F)C(=O)Nc1ccc(OC)c(Nc2ncc(Cl)c(Nc3ccccc3P(C)(C)=O)n2)c1	50 to 100 nM
C=CC(=O)Nc1cc(Nc2ncc(Cl)c(Nc3ccccc3P(C)(C)=O)n2)c(OC)cc1N1CC(N2CCCC2)C1	< 50 nM
C=CC(=O)Nc1cc(Nc2ncc(Cl)c(Nc3ccccc3P(C)(C)=O)n2)c(OC)cc1N1CCC(N2CCCC2)CC1	101 to 250 nM
C=CC(=O)Nc1ccc(Cl)c(Nc2ncc(Cl)c(Nc3ccccc3P(C)(C)=O)n2)c1	< 50 nM
COc1ccc(NC(=O)/C=C/CN2CCCCC2)cc1Nc1ncc(Cl)c(Nc2ccccc2P(C)(C)=O)n1	< 50 nM
C=CC(=O)Nc1ccc(OC)c(Nc2ncc(Cl)c(Nc3ccc(OCCCN(C)C)cc3P(C)(C)=O)n2)c1	< 50 nM
C=C(CN1CCCCC1)C(=O)Nc1ccc(OC)c(Nc2ncc(Cl)c(Nc3ccccc3P(C)(C)=O)n2)c1	< 50 nM
C=CC(=O)Nc1cc(Nc2ncc(Cl)c(Nc3ccccc3P(C)(C)=O)n2)c(OC)cc1C#CCN1CCN(C)CC1	101 to 250 nM

###

Recorded IC50 values (EGFR (Human), P00533 [T790M/L858R]) are given below.

Molecule	IC50
C=CC(=O)Nc1cc(Nc2ncc(Cl)c(Nc3ccccc3P(C)(C)=O)n2)c(OC)cc1N1CCC(N)C1 (stereo unspecified)	< 0.05 µM
C=CC(=O)Nc1cc(Nc2ncc(Cl)c(Nc3ccccc3P(C)(C)=O)n2)c(OC)cc1N1CCC(N2CCCN(C)CC2)CC1	< 0.05 µM
COc1ccc(NC(=O)/C=C/CN2CCCCC2)cc1Nc1ncc(Cl)c(Nc2ccccc2P(C)(C)=O)n1	< 0.05 µM
C=CC(=O)Nc1cc(Cc2ncc(Cl)c(Nc3ccccc3P(C)(C)=O)n2)c(OC)cc1C#CCN1CCC(N(C)C)C1 (stereo unspecified)	< 0.05 µM
C=CC(=O)Nc1cc(Nc2ncc(Cl)c(Nc3ccccc3P(C)(C)=O)n2)c(Cl)cc1OC(COC)CN(C)C (stereo unspecified)	< 0.05 µM
C=CC(=O)Nc1cc(Nc2ncc(Cl)c(Nc3ccccc3P(C)(C)=O)n2)c(OC)cc1C#CCN(C)C(C)C	< 0.05 µM
COc1ccc(NC(=O)C#CC(C)(C)N2CCCC2)cc1Nc1ncc(Cl)c(Nc2ccccc2P(C)(C)=O)n1	< 0.05 µM
COc1cc(P(C)(C)=O)ccc1Nc1ncc(Cl)c(Oc2cccc(NC(=O)C#CCN(C)C)c2)n1	< 0.05 µM
C=C(C)C(=O)Nc1cc(Nc2ncc(Cl)c(Nc3ccccc3P(C)(C)=O)n2)c(OC)cc1N1CC[C@@H](N(C)C)C1	< 0.05 µM
C=CC(=O)Nc1cc(Nc2ncc(Cl)c(Nc3ccccc3P(C)(C)=O)n2)c(OC)cc1C#CCN(C)C	< 0.05 µM
C=CC(=O)Nc1cc(Nc2ncc(Cl)c(Nc3ccccc3P(C)(C)=O)n2)c(OC)cc1OCCN1CCN(C)CC1	< 0.05 µM
C=CC(=O)Nc1ccc(OC)c(Nc2ncc(Cl)c(Nc3ccc(OCCN(C)C)cc3P(C)(C)=O)n2)c1	< 0.05 µM
C=CC(=O)Nc1cc(Nc2ncc(Cl)c(Nc3ccccc3P(C)(C)=O)n2)c(OC)cc1N1CC[C@H](N(C)C)C1	< 0.05 µM
COc1cc(F)c(NC(=O)/C=C/Cl)cc1Nc1ncc(Cl)c(Nc2ccccc2P(C)(C)=O)n1	< 0.05 µM
COc1ccc(NC(=O)/C=C/C(=O)NCCN(C)C)cc1Nc1ncc(Cl)c(Nc2ccccc2P(C)(C)=O)n1	< 0.05 µM
C=CC(=O)Nc1cc(Nc2ncc(Cl)c(Nc3ccccc3P(C)(C)=O)n2)c(OC)cc1N1CCC(N(C)CCOC)C1 (stereo unspecified)	< 0.05 µM

###

target: EGFR (Human), P00533 [Assessment of EGFR-Del T790M Dependent Cell Proliferation in BaF3 Cells]
Sequence (P00533 whole entry, looked up, stated change not applied): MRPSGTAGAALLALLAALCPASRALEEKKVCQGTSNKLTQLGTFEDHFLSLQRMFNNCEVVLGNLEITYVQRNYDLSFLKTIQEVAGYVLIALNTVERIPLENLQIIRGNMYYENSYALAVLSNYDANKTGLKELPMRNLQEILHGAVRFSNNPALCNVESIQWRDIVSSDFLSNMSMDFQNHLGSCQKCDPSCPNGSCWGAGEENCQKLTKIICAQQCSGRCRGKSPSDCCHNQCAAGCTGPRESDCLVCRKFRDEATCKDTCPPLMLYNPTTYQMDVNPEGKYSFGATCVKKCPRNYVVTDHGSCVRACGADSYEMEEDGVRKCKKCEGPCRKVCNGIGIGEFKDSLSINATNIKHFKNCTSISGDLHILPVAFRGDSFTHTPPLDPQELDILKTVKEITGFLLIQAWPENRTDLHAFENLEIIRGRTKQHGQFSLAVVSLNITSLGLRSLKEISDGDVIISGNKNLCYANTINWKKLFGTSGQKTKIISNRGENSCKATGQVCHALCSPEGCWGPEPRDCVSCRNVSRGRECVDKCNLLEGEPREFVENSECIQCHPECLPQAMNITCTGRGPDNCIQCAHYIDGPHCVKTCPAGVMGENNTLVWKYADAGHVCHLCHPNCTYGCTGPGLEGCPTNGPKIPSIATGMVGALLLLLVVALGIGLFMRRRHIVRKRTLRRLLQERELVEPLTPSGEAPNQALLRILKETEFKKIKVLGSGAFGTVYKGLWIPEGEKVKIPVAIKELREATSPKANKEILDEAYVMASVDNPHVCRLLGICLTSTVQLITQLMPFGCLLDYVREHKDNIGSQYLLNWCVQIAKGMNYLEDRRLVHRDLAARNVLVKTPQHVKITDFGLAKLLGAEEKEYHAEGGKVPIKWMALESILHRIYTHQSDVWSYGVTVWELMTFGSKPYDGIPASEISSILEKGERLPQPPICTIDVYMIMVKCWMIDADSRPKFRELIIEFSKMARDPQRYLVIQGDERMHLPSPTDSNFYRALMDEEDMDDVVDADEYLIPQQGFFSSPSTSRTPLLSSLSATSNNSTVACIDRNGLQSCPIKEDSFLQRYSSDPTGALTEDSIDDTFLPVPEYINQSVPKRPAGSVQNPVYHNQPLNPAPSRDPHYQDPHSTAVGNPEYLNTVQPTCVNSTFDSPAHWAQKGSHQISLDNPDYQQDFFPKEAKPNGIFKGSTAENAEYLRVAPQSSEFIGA
Reported IC50 values follow for various compounds
Property Name: IC50

Compound	Reported Value
C=CC(=O)Nc1cc(Nc2ncc(Cl)c(Nc3ccccc3P(C)(C)=O)n2)c(OC)cc1OCCN1CCCC1	< 50 nM
C=CC(=O)Nc1cc(Nc2ncc(Cl)c(Nc3ccccc3P(C)(C)=O)n2)c(OC)cc1C#CCN1CCCCCC1	< 50 nM
C=CC(=O)Nc1cc(Nc2ncc(Cl)c(Nc3ccccc3S(=O)(=O)C(C)C)n2)c(OC)cc1C#CCN(C)C	< 50 nM
C=CC(=O)Nc1cc(Nc2ncc(Cl)c(Nc3ccccc3P(C)(C)=O)n2)c(OC)cc1N1CCC(N2CCCCC2)CC1	< 50 nM
COCC#CC(=O)Nc1ccc(OC)c(Nc2ncc(Cl)c(Nc3ccccc3P(C)(C)=O)n2)c1	< 50 nM
COc1ccc(NC(=O)C#Cc2ccccc2)cc1Nc1ncc(Cl)c(Nc2ccccc2P(C)(C)=O)n1	< 50 nM
C=CC(=O)Nc1cc(Nc2ncc(C3CC3)c(Nc3ccccc3P(C)(C)=O)n2)c(OC)cc1N(C)CCN(CC)CC	< 50 nM
C=CC(=O)Nc1cc(Nc2ncc(Cl)c(Nc3ccccc3P(C)(C)=O)n2)c(OC)cc1N1CCC(N(C)CCOC)C1 (centres undefined)	< 50 nM
C=CC(=O)Nc1ccc(OC)c(Nc2ncc(Cl)c(Nc3ccc(OCCOC)cc3P(C)(C)=O)n2)c1	< 50 nM
C=CC(=O)Nc1cc(Nc2ncc(Cl)c(Nc3ccccc3P(C)(C)=O)n2)c(OC)cc1N1CCC(N2CCCC2)C1 (centres undefined)	< 50 nM
C=CC(=O)N1CCc2cc(Nc3ncc(Cl)c(Nc4ccccc4P(C)(C)=O)n3)c(OC)cc21	101 to 250 nM
C=CC(=O)Nc1cc(Nc2ncc(Cl)c(Nc3ccccc3P(C)(C)=O)n2)c(C)cc1C#CCN(C)C	< 50 nM
C=C(CN1CCN(C)CC1)C(=O)Nc1ccc(OC)c(Nc2ncc(Cl)c(Nc3ccccc3P(C)(C)=O)n2)c1	< 50 nM
C=CC(=O)Nc1cc(Nc2ncc(Cl)c(Nc3ccccc3P(C)(C)=O)n2)c(OC)cc1N1CCC(N2CCN(C)CC2)C1 (centres undefined)	50 to 100 nM
COc1ccc(NC(=O)/C=C/CN2CCCCC2)cc1Nc1ncc(Cl)c(Nc2ccccc2P(C)(C)=O)n1	< 50 nM
C=CC(=O)Nc1ccc(OC)c(Nc2ncc(Cl)c(Nc3ccccc3P(C)(C)=O)n2)c1	101 to 250 nM
C=CC(=O)Nc1cc(Nc2ncc(Cl)c(Nc3ccccc3P(C)(C)=O)n2)c(OC)cc1OC(COCC)CN(C)C (centres undefined)	< 50 nM
COc1cc(F)c(NC(=O)/C=C/Cl)cc1Nc1ncc(Cl)c(Nc2ccccc2P(C)(C)=O)n1	< 50 nM
C=CC(=O)Nc1ccc(OC)c(Nc2ncc(C#N)c(Nc3ccccc3P(C)(C)=O)n2)c1	101 to 250 nM
C=CC(=O)Nc1ccc(OC)c(Nc2ncc(OC)c(Nc3ccccc3P(C)(C)=O)n2)c1	< 50 nM
C=CC(=O)Nc1cc(Nc2ncc(Cl)c(Nc3ccccc3P(C)(C)=O)n2)c(OC)cc1N1CCC(N2CCCC2)CC1	< 50 nM
CNC(=O)/C=C\C(=O)Nc1ccc(OC)c(Nc2ncc(Cl)c(Nc3ccccc3P(C)(C)=O)n2)c1	< 50 nM
C=CC(=O)Nc1cc(Nc2ncc(Cl)c(Nc3ccccc3P(C)(C)=O)n2)c(OC)cc1OCC(CO)N(C)C (centres undefined)	101 to 250 nM
C=CC(=O)Nc1cc(Nc2ncc(Cl)c(Nc3ccccc3P(C)(C)=O)n2)c(OC)cc1N1CCC(N2CCOCC2)C1 (centres undefined)	< 50 nM
